subject.of.test: humanized development candidate monoclonal antibody IgG4 (hIgG4)
protocol.text: direct ELISA, hIgG4 coated, B-cell culture medium
recorded.endpoint: OD450 (OD450)
Respond with the bare value in OD450.

binder: rabbit anti-human IgG monoclonal antibody clone 16F5 (antibody, V domains shown) VH: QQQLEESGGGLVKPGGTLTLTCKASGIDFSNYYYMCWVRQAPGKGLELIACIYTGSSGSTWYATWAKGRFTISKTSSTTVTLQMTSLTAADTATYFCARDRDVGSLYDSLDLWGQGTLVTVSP VL: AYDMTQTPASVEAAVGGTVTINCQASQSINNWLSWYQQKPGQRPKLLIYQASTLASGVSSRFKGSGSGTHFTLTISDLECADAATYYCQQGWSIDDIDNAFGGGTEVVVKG
measurement.units: OD450
OD450: 1.37

In the following, a different binder is considered.
In: Quick check: OD450 of rabbit anti-human IgG monoclonal antibody clone 9E6 (antibody, V domains shown) VH: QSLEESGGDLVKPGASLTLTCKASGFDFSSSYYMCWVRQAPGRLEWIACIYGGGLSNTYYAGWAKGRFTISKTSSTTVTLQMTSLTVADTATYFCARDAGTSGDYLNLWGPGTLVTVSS VL: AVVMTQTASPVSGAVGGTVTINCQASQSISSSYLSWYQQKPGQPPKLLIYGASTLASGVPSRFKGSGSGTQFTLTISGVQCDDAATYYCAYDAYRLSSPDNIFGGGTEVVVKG ?
Out: 1.28

Origin of measurements: patent US20250237662A1
